I'd appreciate it if you could supply growth values for the items below.
tested on: 786-0 renal; experiment: NCI-60 one-dose screen, 48 h (100 = growth as untreated, 0 = no growth, -100 = all killed); settings: 10 µM unless noted
About 83,000 compounds went through this panel and 20% of them were active in at least one assay; those are over-represented in the sample as a whole.
Write down the numeric answer in % and omit the unit.

Incoming: Would you mind telling me what growth value was observed for `CC(=O)c1nc(Nc2ccc(C)cc2)sc1C` ?
Outgoing: 98.1

Incoming: What growth value was documented for this molecule, `O=C(Nc1cccc(Oc2nnc(Cl)c3ccccc23)c1)Nc1ccc(Cl)c(C(F)(F)F)c1` ?
Outgoing: -42.8

Incoming: Would you mind telling me what growth value was observed for `CNc1ccc(NC)c2c1C(=O)c1ccccc1C2=O` ?
Outgoing: 92.1

Incoming: Please look up its growth: CC(CN1CCCCC1)C(=O)c1ccccc1 (stereo not drawn)
Outgoing: 105

Incoming: Sample CCCCN(CCCC)CC(C)(C)C(O)c1ccc(OC)c2ccccc12 (stereo not drawn) — what was its growth?
Outgoing: 58.4

Incoming: Recorded growth of `Fc1c[c-]c(-c2ccccn2)c(F)c1.[CH3-].[Pt+2].c1ccc(P(C[PH+](c2ccccc2)c2ccccc2)c2ccccc2)cc1` , please.
Outgoing: -52.5

Incoming: For N#CC1=C(NC=O)Oc2c(ccc3ccccc23)C1c1ccccc1 (stereo not drawn) , what is its reported growth?
Outgoing: 22

Incoming: What growth value was documented for this molecule, `Nc1ccc2c(c1)c(N)nn2C(=O)Nc1ccc(Cc2ccccc2)cc1` ?
Outgoing: 84.3

Incoming: I'd like to know its growth. The molecule in question is CC1(c2ccccc2)NC(=O)N(NC(=O)CSc2nc(-c3cccs3)nc3ccccc23)C1=O (stereo not drawn)
Outgoing: 94.1

Incoming: Given the molecule `CC1(C)CC[C@]2(C(=O)N3CCOCC3)CC[C@]3(C)C(=CC[C@@H]4[C@@]5(C)CC[C@H](OC(=O)c6cccnc6)C(C)(C)[C@@H]5CC[C@]43C)[C@@H]2C1` , what is its reported growth?
Outgoing: 62.4

Incoming: Endpoint output: growth of `O=c1ssc(Cl)c1-c1ccccc1` . Value?
Outgoing: 107

Incoming: Entry `C=CC(=O)Nc1cccc(Oc2nccc(Nc3nnc(C4CC4)s3)n2)c1` has what growth?
Outgoing: 86.6

Incoming: So what's the measured growth for this one? Cc1nc2ccccc2n1CC1NC(=O)NC1=O (stereo not drawn)
Outgoing: 101

Incoming: Which value of growth has been reported for `NS(=O)(=O)c1cnccc1Oc1cccc2cccnc12` in the records?
Outgoing: 97.7

Incoming: Dear colleague, I am looking for the recorded growth of the following molecule: COc1ccc(C2CC(c3cccc(OC)c3)=NN2C(=O)c2cc(OC)c(OC)c(OC)c2)cc1 (stereo not drawn)
Outgoing: 21.6

Incoming: Please report the recorded growth for `COc1cc(C(=O)/C=C/c2c(-c3ccc(F)cc3)nc3sc(C)cn23)cc(OC)c1OC` .
Outgoing: 40.8

Incoming: Recorded growth of N#CCN1C(=O)C2C3=C(CCCC3)SC2N=C1CN1CCCC1 (stereo not drawn) , please.
Outgoing: 92

Incoming: Can you share its growth? I mean this molecule: `COc1ccccc1N1C(=O)/C(=C/C2=Cc3ccccc3OC2)SC1=S`
Outgoing: 101

Incoming: Query: growth; subject: `O=C(NCCCNc1cc(-c2cn(-c3ccccc3)nc2-c2cccc(O)c2)ccn1)c1ccc(F)cc1`
Outgoing: -49.4

Incoming: Return reported growth; argument: `COc1ccc2[nH]c(O)c(/C=c3/cc4c(c(-c5ccc(F)c(OC)c5)n3)=Nc3ccccc3-4)c2c1`
Outgoing: -59

Incoming: Consider the molecule shown here: `COc1ccc(-c2nc(SCC(=O)Nc3nc(-c4ccccc4)cs3)[nH]c(=O)c2C#N)cc1` What is its recorded growth?
Outgoing: 100

Incoming: I am curious: what growth value has been reported for `CCN(CC)c1ccc2nc3c4ccccc4c(=NC(=O)c4ccccc4-c4c5ccc(N(CC)CC)cc5[o+]c5cc(N(CC)CC)ccc45)cc-3oc2c1` ?
Outgoing: -28.3

Incoming: Suppose we examine the molecule `O=C(NCCNc1cc(-c2cn(-c3ccccc3)nc2-c2cccc(O)c2)ccn1)Nc1ccccc1` ; what growth value has been reported?
Outgoing: 71.4

Incoming: Need growth of `NC(=N\N=C/c1ccccc1[N+](=O)[O-])/C(N)=N\N=C/c1ccccc1[N+](=O)[O-]` , thanks.
Outgoing: 103

Incoming: So what's the measured growth for this one? `C=C(C)[C@@H]1CC[C@]2(C(=O)NC3CCCCC3)CC[C@]3(C)[C@H](CC[C@@H]4[C@@]5(C)CCCNC(C)(C)[C@@H]5CC[C@]43C)[C@@H]12`
Outgoing: 62.7

Incoming: What value of growth has been reported for the following molecule? CNC(=O)NCC1OC(n2cnc3c(NC(=O)Nc4ccccc4)ncnc32)C(O[Si](C)(C)C(C)(C)C)C1CC(=O)N(C)OC (stereo not drawn)
Outgoing: 47.4

Incoming: For the molecule `COc1cc(/C=N/Nc2ncc(-c3cc4cc5c(cc4o3)OCO5)s2)cc(OC)c1OC` , what growth is on record?
Outgoing: 84.5

Incoming: # get_value(readout='growth', item= `COc1cccc(C(=O)NCCCNc2cc(-c3cn(-c4ccccc4)nc3-c3cccc(OC)c3)ccn2)c1` )
Outgoing: 36.6

Incoming: Entry O=C1CC(N2C(=O)/C(=C/C(Cl)=C\c3ccc([N+](=O)[O-])cc3)SC2=S)C(=O)N1c1ccc(O)cc1 (stereo not drawn) : reported growth = ?
Outgoing: -3.2

Incoming: Consider the molecule `O=C(Nc1ccccc1Cl)Oc1ccc(-c2ccccc2)cc1` and give its measured growth.
Outgoing: 97.2

Incoming: Looking for the measured growth of `Cn1cc2c(c1)-c1nc(Nc3ccccc3)ncc1CC2` , can you help?
Outgoing: 87.2

Incoming: If you can, please state the reported growth value of `CC(C)(C)CC(C)(C)Nc1c(-c2ccncc2)nc2cnccn12` .
Outgoing: 96.6

Incoming: Consider the molecule shown here: COc1cc2c(cc1-c1c(C)noc1C)ncc1nc(C3CCCCC3)n(C3CCC(OC(F)F)CC3)c12 (stereo not drawn) What is its recorded growth?
Outgoing: 41.4

Incoming: I would be grateful if you could share the reported growth for `CCN(CC)CCN1CC(O)=C(c2nc(-c3ccc(Cl)cc3)cs2)C1=N` .
Outgoing: -68.5

Incoming: Using the record for `CCc1ccccc1-n1c(-c2ccc(Cl)cc2)cc(-c2ccc(OC)cc2)c(C#N)c1=O` , report its growth.
Outgoing: 92

Incoming: Name the recorded growth for `CC(C)C(=O)Nc1n[nH]c2cc(-c3cccc(NS(=O)(=O)C4CC4)c3)ccc12` .
Outgoing: 89.2

Incoming: Entry `C[C@]12CC[C@@H]3c4cc(OC(F)F)c(O)cc4CC[C@H]3[C@@H]1CC[C@@H]2OS(N)(=O)=O` : reported growth = ?
Outgoing: 56.4

Incoming: Sample CCC(CO)Nc1nc2ccc(Cl)cc2c2ccccc12 (stereo not drawn) — what was its growth?
Outgoing: 41.6
